Assay Comment: Hemolytic activity in sheep RBC assessed as hemolysis at 1280 microg/ml incubated for 1 hrs by microplate reader analysis relative to control
Format: toxicity, cell-based, Ovis aries, Erythrocyte
Reported Conditions: sheep red blood cells, dose 1280 µg/ml, read-out: Activity
Property Name: hemolysis at 1 h, 1280 microg/ml (%)
Express the result in % but write the number alone.

Incoming: Give the measured hemolysis at 1 h, 1280 microg/ml of CC(=O)NC[C@H]1CN(c2ccc(N3CCN(C(=O)CN(C)Cc4ccc([N+](=O)[O-])cc4)CC3)c(F)c2)C(=O)O1 .
Outgoing: 3.19

----------
Assay Comment: Hemolytic activity in sheep RBC assessed as hemolysis incubated for 1 hrs by microplate reader analysis
Type: toxicity, cell-based, Ovis aries, Erythrocyte
Reported Conditions: sheep red blood cells
Property Name: HC50 at 1 h

[
  {
    "Given Smiles": "COc1cccc(CN(C)CC(=O)N2CCN(c3ccc(N4C[C@H](CNC(C)=O)OC4=O)cc3F)CC2)c1",
    "HC50 at 1 h": "> 1280 µg/mL"
  },
  {
    "Given Smiles": "CC(=O)NC[C@H]1CN(c2ccc(N3CCN(C(=O)CN(C)Cc4ccccc4)CC3)c(F)c2)C(=O)O1",
    "HC50 at 1 h": "> 1280 µg/mL"
  },
  {
    "Given Smiles": "CC(=O)NC[C@H]1CN(c2ccc(N3CCOCC3)c(F)c2)C(=O)O1",
    "HC50 at 1 h": "> 1280 µg/mL"
  }
]

Incoming: # query: HC50 at 1 h of entry COc1ccccc1CN(C)CC(=O)N1CCN(c2ccc(N3C[C@H](CNC(C)=O)OC3=O)cc2F)CC1
Outgoing: > 1280 µg/mL

Incoming: For CC(=O)NC[C@H]1CN(c2ccc(N3CCN(C(=O)CN(C)Cc4ccc(Cl)cc4)CC3)c(F)c2)C(=O)O1 then?
Outgoing: > 1280 µg/mL
